Listing of recorded pKd by entry.
Biological target: GCGR extracellular domain (human, UniProt P47871)
Sequence (P47871 26-477): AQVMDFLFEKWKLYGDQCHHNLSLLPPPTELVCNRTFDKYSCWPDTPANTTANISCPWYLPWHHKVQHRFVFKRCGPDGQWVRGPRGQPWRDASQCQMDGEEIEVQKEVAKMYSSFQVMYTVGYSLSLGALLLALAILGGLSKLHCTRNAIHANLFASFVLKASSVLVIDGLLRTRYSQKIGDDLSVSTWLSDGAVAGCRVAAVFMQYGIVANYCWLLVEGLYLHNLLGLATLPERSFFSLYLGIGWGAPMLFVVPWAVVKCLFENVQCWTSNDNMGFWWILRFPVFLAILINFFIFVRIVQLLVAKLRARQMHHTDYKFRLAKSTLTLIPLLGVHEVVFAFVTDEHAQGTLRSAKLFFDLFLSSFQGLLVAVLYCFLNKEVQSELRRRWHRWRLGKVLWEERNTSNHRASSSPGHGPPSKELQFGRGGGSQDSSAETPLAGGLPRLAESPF
Assay: SPR
# pKd = -log10(concentration in molar units)

Please review the following examples before continuing.
VH Y100bH (antibody, V domains shown) VH: EVQLVESGGGLVQPGGSLRLSCAASGFNIYYNYIHWVRQAPGKGLEWVAEFSPYSGSTYYADSVKGRFTISADTSKNTAYLQMNSLRAEDTAVYYCARSAAIVDWHDYFKGFDYWGQGTLVTVSS VL: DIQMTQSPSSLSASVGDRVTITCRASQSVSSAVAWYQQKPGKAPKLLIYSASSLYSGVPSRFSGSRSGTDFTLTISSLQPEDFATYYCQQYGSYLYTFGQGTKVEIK : 8.54
VH Y100bK (antibody, V domains shown) VH: EVQLVESGGGLVQPGGSLRLSCAASGFNIYYNYIHWVRQAPGKGLEWVAEFSPYSGSTYYADSVKGRFTISADTSKNTAYLQMNSLRAEDTAVYYCARSAAIVDWKDYFKGFDYWGQGTLVTVSS VL: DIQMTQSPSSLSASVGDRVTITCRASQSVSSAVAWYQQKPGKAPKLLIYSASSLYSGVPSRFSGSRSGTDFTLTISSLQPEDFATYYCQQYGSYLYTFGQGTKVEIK : 8.11
VL Y94K (antibody, V domains shown) VH: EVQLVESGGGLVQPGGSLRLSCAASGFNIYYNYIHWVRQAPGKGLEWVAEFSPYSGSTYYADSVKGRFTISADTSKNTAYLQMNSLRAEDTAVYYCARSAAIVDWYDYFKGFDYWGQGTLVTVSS VL: DIQMTQSPSSLSASVGDRVTITCRASQSVSSAVAWYQQKPGKAPKLLIYSASSLYSGVPSRFSGSRSGTDFTLTISSLQPEDFATYYCQQYGSKLYTFGQGTKVEIK : 8.80
VH W100aF (antibody, V domains shown) VH: EVQLVESGGGLVQPGGSLRLSCAASGFNIYYNYIHWVRQAPGKGLEWVAEFSPYSGSTYYADSVKGRFTISADTSKNTAYLQMNSLRAEDTAVYYCARSAAIVDFYDYFKGFDYWGQGTLVTVSS VL: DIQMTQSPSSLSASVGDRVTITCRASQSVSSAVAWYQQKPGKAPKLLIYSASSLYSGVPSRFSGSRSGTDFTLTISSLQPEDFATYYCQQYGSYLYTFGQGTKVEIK : 8.28
VH W100aV (antibody, V domains shown) VH: EVQLVESGGGLVQPGGSLRLSCAASGFNIYYNYIHWVRQAPGKGLEWVAEFSPYSGSTYYADSVKGRFTISADTSKNTAYLQMNSLRAEDTAVYYCARSAAIVDVYDYFKGFDYWGQGTLVTVSS VL: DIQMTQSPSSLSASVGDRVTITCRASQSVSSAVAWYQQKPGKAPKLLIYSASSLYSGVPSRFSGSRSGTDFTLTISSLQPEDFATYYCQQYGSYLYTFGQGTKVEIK : 8.23

Would you kindly look at the next entry?
Name the recorded pKd for VH Y100bQ (antibody, V domains shown) VH: EVQLVESGGGLVQPGGSLRLSCAASGFNIYYNYIHWVRQAPGKGLEWVAEFSPYSGSTYYADSVKGRFTISADTSKNTAYLQMNSLRAEDTAVYYCARSAAIVDWQDYFKGFDYWGQGTLVTVSS VL: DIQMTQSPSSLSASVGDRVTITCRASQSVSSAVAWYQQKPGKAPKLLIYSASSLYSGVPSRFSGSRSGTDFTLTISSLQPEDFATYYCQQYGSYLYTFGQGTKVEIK .
8.22
